# Tested on: CLZ3 (HCA2 human fibroblast dual HR-NHEJ reporter)
# assay_protocol: NHEJ repair efficiency (GFP+ cells) relative to control (log10 fold); higher = more non-homologous end joining
# assay_setup: 5 µM; doxycycline 0.5 ug/mL
Each record here notes measured NHEJ repair efficiency (log10).

| compound | test_target | NHEJ repair efficiency (log10) |
| --- | --- | --- |
| O=C1C=C2C=C[C@@H](O)[C@H](O)[C@H]2O1 [Griffonilide] | CLZ3 (HCA2 human fibroblast dual HR-NHEJ reporter) | 0.0786 |
| O=c1oc2c(O)c(O)cc3c(=O)oc4c(O)c(O)cc1c4c23 [Ellagic Acid] | CLZ3 (HCA2 human fibroblast dual HR-NHEJ reporter) | -0.0512 |
| COc1cc(/C=C/C(=O)O)ccc1O [Ferulaic Acid] | CLZ3 (HCA2 human fibroblast dual HR-NHEJ reporter) | -0.0555 |
| C=C[C@H]1[C@H](O[C@@H]2O[C@H](CO)[C@@H](O)[C@H](O)[C@H]2O)OC=C2C(=O)OCC[C@]21O [Swertiamarin] | CLZ3 (HCA2 human fibroblast dual HR-NHEJ reporter) | -0.0365 |

###

Each record here notes measured NHEJ repair efficiency (log10).
# System: CLZ3 (HCA2 human fibroblast dual HR-NHEJ reporter)
# assay_protocol: NHEJ repair efficiency (GFP+ cells) relative to control (log10 fold); higher = more non-homologous end joining
# assay_setup: 5 µM; doxycycline 0.5 ug/mL
property: NHEJ repair efficiency (log10)

| compound | property | result_number |
| --- | --- | --- |
| CC1(C)CC[C@]2(C(=O)O[C@@H]3O[C@H](CO)[C@@H](O)[C@H](O)[C@H]3O)CC[C@]3(C)C(=CC[C@@H]4[C@@]5(C)CC[C@H](O[C@@H]6O[C@H](C(=O)O)[C@@H](O)[C@H](O)[C@H]6O[C@@H]6O[C@H](CO)[C@@H](O)[C@H](O)[C@H]6O)C(C)(C)[C@@H]5CC[C@]43C)[C@@H]2C1 [Chikusetsusaponin V] | NHEJ repair efficiency (log10) | 0.0351 |
| NC(=O)c1cccnc1 [Nicotinamide] | NHEJ repair efficiency (log10) | 0.139 |
| C[C@@H]1O[C@@H](O[C@@H]2[C@@H](O)[C@H](OCCc3ccc(O)c(O)c3)O[C@H](COC(=O)/C=C/c3ccc(O)c(O)c3)[C@H]2O)[C@H](O)[C@H](O)[C@H]1O [Isoacteoside] | NHEJ repair efficiency (log10) | -0.112 |
| COc1cc2c(cc1OC)[C@@H](Cc1ccc(Oc3cc(C[C@@H]4c5cc(OC)c(OC)cc5CCN4C)ccc3O)cc1)N(C)CC2 | NHEJ repair efficiency (log10) | -0.0332 |
| COc1ccc2[nH]cc(CCNC(C)=O)c2c1 | NHEJ repair efficiency (log10) | 0.0863 |
| O=C(O)c1ccccc1O | NHEJ repair efficiency (log10) | 0.019 |
| CC(C)(O)CC[C@@H](O)C(C)(O)[C@H]1CC[C@@]2(O)C3=CC(=O)[C@@H]4C[C@@H](O)[C@@H](O)C[C@]4(C)[C@H]3CC[C@]12C (stereo partly drawn) [Β-Hydroxyecdysone] | NHEJ repair efficiency (log10) | -0.034 |
| OCC1=C[C@@H](O)[C@@H]2C=CO[C@@H](O[C@@H]3O[C@H](CO)[C@@H](O)[C@H](O)[C@H]3O)[C@H]12 | NHEJ repair efficiency (log10) | 0.0297 |
| O=C(O)[C@H]1O[C@@H](Oc2cc(O)c3c(=O)cc(-c4ccc(O)cc4)oc3c2)[C@H](O)[C@@H](O)[C@@H]1O [Apigenin-7-O-Glucronide] | NHEJ repair efficiency (log10) | -0.216 |

###

Each record here notes measured HR repair efficiency (log10).
# Test system: CLZ3 (HCA2 human fibroblast dual HR-NHEJ reporter)
# assay_protocol: HR repair efficiency (tdTomato+ cells) relative to control (log10 fold); higher = more homologous recombination
# assay_setup: 5 µM; doxycycline 0.5 ug/mL

| compound | test_target | HR repair efficiency (log10) |
| --- | --- | --- |
| O=C(O)CC(O)(CC(=O)O)C(=O)O | CLZ3 (HCA2 human fibroblast dual HR-NHEJ reporter) | -0.109 |
| C=C1CC[C@H]2C(=C)CC[C@H]3C(=C)C(=O)O[C@@H]3[C@@H]12 [Dehydrocostus Lactone] | CLZ3 (HCA2 human fibroblast dual HR-NHEJ reporter) | 0.03 |
| COc1ccc(-c2oc3cc(OC)c(OC)c(O)c3c(=O)c2OC)cc1O | CLZ3 (HCA2 human fibroblast dual HR-NHEJ reporter) | -0.203 |
| CCCCCC=CC(=O)CCc1ccc(O)c(OC)c1 | CLZ3 (HCA2 human fibroblast dual HR-NHEJ reporter) | -0.0794 |
| COc1ccc(-c2oc3c(CC=C(C)C)c(O[C@@H]4O[C@H](CO)[C@@H](O)[C@H](O)[C@H]4O)cc(O)c3c(=O)c2O[C@@H]2O[C@@H](C)[C@H](O)[C@@H](O)[C@H]2O)cc1 [Icarrin] | CLZ3 (HCA2 human fibroblast dual HR-NHEJ reporter) | 0.0409 |
| CC[C@H](CC[C@@H](C)[C@H]1CC[C@H]2[C@@H]3CC=C4C[C@@H](O[C@@H]5O[C@H](CO)[C@@H](O)[C@H](O)[C@H]5O)CC[C@]4(C)[C@H]3CC[C@]12C)C(C)C | CLZ3 (HCA2 human fibroblast dual HR-NHEJ reporter) | 0.0626 |
| COC(=O)C1=CO[C@@H](O[C@@H]2O[C@H](CO)[C@@H](O)[C@H](O)[C@H]2O)[C@H]2[C@@H]1[C@H](O)C[C@]2(C)OC(C)=O [8-O-Acetyl Shanzhiside Methyl Ester] | CLZ3 (HCA2 human fibroblast dual HR-NHEJ reporter) | -0.109 |
| O=C(O)/C=C/c1ccccc1 | CLZ3 (HCA2 human fibroblast dual HR-NHEJ reporter) | 0.0721 |

###

Each record here notes measured NHEJ repair efficiency (log10).
# Tested on: CLZ3 (HCA2 human fibroblast dual HR-NHEJ reporter)
# assay_protocol: NHEJ repair efficiency (GFP+ cells) relative to control (log10 fold); higher = more non-homologous end joining
# assay_setup: 5 µM; doxycycline 0.5 ug/mL
property: NHEJ repair efficiency (log10)

| molecule | test_target | property | result |
| --- | --- | --- | --- |
| CC1=C[C@]2(O)O[C@@]3(CC2=C(C)C)[C@@H](C)CC[C@@H]13 [Curcumenol] | CLZ3 (HCA2 human fibroblast dual HR-NHEJ reporter) | NHEJ repair efficiency (log10) | 0.129 |
| CC(C)C(C)C(O)C(O)C(C)C1CCC2C3COC(=O)C4CC(O)C(O)CC4(C)C3CCC12C (stereo not given) [Brassinolide] | CLZ3 (HCA2 human fibroblast dual HR-NHEJ reporter) | NHEJ repair efficiency (log10) | -0.122 |
| C[C@@H]1O[C@@H](O[C@H]2[C@H](Oc3c(-c4ccc(O)cc4)oc4cc(O)cc(O)c4c3=O)O[C@H](CO)[C@@H](O)[C@@H]2O)[C@H](O)[C@H](O)[C@H]1O [Kaempferol 3-O-Neohesperidoside] | CLZ3 (HCA2 human fibroblast dual HR-NHEJ reporter) | NHEJ repair efficiency (log10) | 0.0799 |
| C[C@H]1[C@H](C)CC[C@]2(C(=O)O)CC[C@]3(C)C(=CC[C@@H]4[C@@]5(C)C[C@@H](O)[C@H](O)[C@@](C)(CO)[C@@H]5[C@H](O)C[C@]43C)[C@H]12 [Madecassic acid] | CLZ3 (HCA2 human fibroblast dual HR-NHEJ reporter) | NHEJ repair efficiency (log10) | 0.0926 |
| Oc1cc(O)c2c(c1)O[C@H](c1ccc(O)c(O)c1)[C@H](O)[C@H]2c1c(O)cc(O)c2c1O[C@H](c1ccc(O)c(O)c1)[C@H](O)C2 [Procyanidin B2] | CLZ3 (HCA2 human fibroblast dual HR-NHEJ reporter) | NHEJ repair efficiency (log10) | 0.092 |

###

# System: CLZ3 (HCA2 human fibroblast dual HR-NHEJ reporter)
# assay_protocol: NHEJ repair efficiency (GFP+ cells) relative to control (log10 fold); higher = more non-homologous end joining
# assay_setup: 5 µM; doxycycline 0.5 ug/mL
Counter-ions that a name gives are not always drawn.
Each record here notes measured NHEJ repair efficiency (log10).
property: NHEJ repair efficiency (log10)

| molecule | property | result_number |
| --- | --- | --- |
| OC[C@H]1NC[C@H](O)[C@@H](O)[C@@H]1O [1-Deoxynojirimycin] | NHEJ repair efficiency (log10) | 0.0355 |
| O=C(/C=C/c1ccc(O[C@@H]2O[C@H](CO)[C@@H](O)[C@H](O)[C@H]2O)cc1)c1ccc(O)cc1O [Isoliquiritoside] | NHEJ repair efficiency (log10) | -0.17 |
| COc1cc2ccc(=O)oc2c(OC)c1O [Isofraxidin] | NHEJ repair efficiency (log10) | -0.0516 |
| COc1ccc(C(=O)O)cc1 [Anisic Acid] | NHEJ repair efficiency (log10) | 0.0832 |
| COc1cc2c(c(O)c1OC)-c1c(cc(OC)c(OC)c1OC)C[C@@H](C)[C@@H](C)C2 [Schisanhenol] | NHEJ repair efficiency (log10) | -0.161 |
| C[C@H]1O[C@@H](O[C@H]2CC[C@@]3(C)[C@@H](CC[C@]4(C)[C@@H]3C=CC3=C5CC(C)(C)CC[C@]5(CO)[C@H](O)C[C@]34C)[C@]2(C)CO)[C@H](O)[C@@H](O[C@@H]2O[C@H](CO)[C@@H](O)[C@H](O)[C@H]2O)[C@H]1O [Saikosaponin B2] | NHEJ repair efficiency (log10) | 0.0489 |
| C=C(C)[C@H](CC=C(C)C)Cc1c(O)cc(OC)c2c1O[C@H](c1ccc(O)cc1O)CC2=O [Kurarinone] | NHEJ repair efficiency (log10) | 0.0108 |
| O=C(O)c1cc(O)c2c(c1)C(=O)c1cccc(O)c1C2=O [Rhein] | NHEJ repair efficiency (log10) | 0.0809 |
| C[C@H](CC(=O)C[C@@H](C)[C@H]1C[C@H](O)[C@@]2(C)C3=C(C(=O)C[C@]12C)[C@@]1(C)CCC(=O)C(C)(C)[C@@H]1C[C@@H]3O)C(=O)O [Ganoderic Acid A] | NHEJ repair efficiency (log10) | 0.0922 |
| CC(C)(C)NCC(O)c1ccc(O)c(CO)c1 (stereo not drawn) [Salbutamol Sulfate] | NHEJ repair efficiency (log10) | -0.0861 |
| COc1ccc(/C=C/C(=O)O)cc1O [Isoferulic acid] | NHEJ repair efficiency (log10) | 0.104 |
| C=C1C(=O)O[C@@H]2/C=C(\C)CC/C=C(\C)CC[C@@H]12 [Costunolide] | NHEJ repair efficiency (log10) | -0.04 |
| C/C=C/C#CC#C[C@@H](O)[C@@H](/C=C/CCCO)O[C@@H]1O[C@H](CO)[C@@H](O)[C@H](O)[C@H]1O [Lobetyolin] | NHEJ repair efficiency (log10) | 0.048 |
| COc1cc([C@H]2OC[C@H]3[C@@H]2CO[C@H]3c2ccc(OC)c(OC)c2)ccc1O [Phillygenin] | NHEJ repair efficiency (log10) | 0.129 |
| C=C1CC[C@@H]2[C@](C)(CO)[C@H](O)CC[C@@]2(C)[C@H]1C/C=C1\C=COC1=O [Dehydroandrographolide] | NHEJ repair efficiency (log10) | 0.015 |
| CC(C)=CCC[C@](C)(O[C@@H]1O[C@H](CO)[C@@H](O)[C@H](O)[C@H]1O)[C@H]1CC[C@]2(C)[C@@H]1[C@H](O)C[C@@H]1[C@@]3(C)CC[C@H](O)C(C)(C)[C@@H]3[C@@H](O[C@@H]3O[C@H](CO)[C@@H](O)[C@H](O)[C@H]3O[C@@H]3O[C@@H](C)[C@H](O)[C@@H](O)[C@H]3O)C[C@]12C [Ginsenoside Re] | NHEJ repair efficiency (log10) | -0.152 |
| C=C1[C@H]2CC[C@]3([C@@H]1O)[C@H]1C[C@@H]4C5(C)CCCC4([C@@H]1N(CC)C5)[C@@H]3[C@H]2O [Denudatine] | NHEJ repair efficiency (log10) | -0.089 |
| COc1ccc(/C=C/c2cc(O)cc(O[C@@H]3O[C@H](CO)[C@@H](O)[C@H](O)[C@H]3O)c2)cc1O [Rhapontin] | NHEJ repair efficiency (log10) | 0.134 |
